biological target: human MMP-9 (gelatinase B) (Homo sapiens, UniProt P14780); construct: endogenous in cells; host or cells: HT1080 human fibrosarcoma cells (ATCC CCL-121), PMA-stimulated; enzyme purified from the culture supernatant; assay: Inhibition activity against human MMP-9 (gelatinase B), fluorescent peptide substrate; assay type: biochemical; conditions: compounds of the formula (I); 1st measurement; read-out: MMP-9 inhibition activities IC50, 1st
Sequence (P14780 107-707 limits assumed): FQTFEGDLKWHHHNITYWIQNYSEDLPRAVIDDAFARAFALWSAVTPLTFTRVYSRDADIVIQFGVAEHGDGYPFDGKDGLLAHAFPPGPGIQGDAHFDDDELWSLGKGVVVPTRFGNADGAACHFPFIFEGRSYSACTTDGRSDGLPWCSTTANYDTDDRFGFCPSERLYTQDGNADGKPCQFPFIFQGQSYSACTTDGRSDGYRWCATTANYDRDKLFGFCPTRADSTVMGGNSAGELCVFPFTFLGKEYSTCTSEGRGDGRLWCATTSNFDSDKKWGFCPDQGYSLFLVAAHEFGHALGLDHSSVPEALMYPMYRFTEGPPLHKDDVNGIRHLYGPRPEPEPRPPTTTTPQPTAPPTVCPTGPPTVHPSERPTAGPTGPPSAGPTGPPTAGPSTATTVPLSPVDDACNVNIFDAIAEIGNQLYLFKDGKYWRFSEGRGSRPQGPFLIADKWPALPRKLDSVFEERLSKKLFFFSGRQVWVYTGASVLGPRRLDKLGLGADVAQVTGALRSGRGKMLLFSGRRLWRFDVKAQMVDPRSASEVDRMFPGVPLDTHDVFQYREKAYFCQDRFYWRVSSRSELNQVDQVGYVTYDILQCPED
measurement label: pIC50
For clarity, pIC50 is expressed as the negative log10 of concentration in mol/L.

Entry CNC(=C[N+](=O)[O-])NNc1cc(C(F)(F)F)cc(OCCN2CCOCC2)n1 : pIC50 on human MMP-9 (gelatinase B) (Homo sapiens, UniProt P14780) = 5.21

Measured pIC50 for this entry CNC(=C[N+](=O)[O-])NNc1cc(C(F)(F)F)cc(OCCOC(C)C)n1 on human MMP-9 (gelatinase B) (Homo sapiens, UniProt P14780): 4.95

Bench note, human MMP-9 (gelatinase B) (Homo sapiens, UniProt P14780): entry CNC(=C[N+](=O)[O-])NNc1ccnc2cc(C(F)(F)F)ccc12 , its pIC50 = 4.46

Measured pIC50 (human MMP-9 (gelatinase B) (Homo sapiens, UniProt P14780)), entry CNC(=C[N+](=O)[O-])NN=Cc1ncc(C(F)(F)F)cc1Cl : 5.08

Known value: human MMP-9 (gelatinase B) (Homo sapiens, UniProt P14780) pIC50 of the compound COc1ccc(NC(=C[N+](=O)[O-])NN)cc1OC equals 4.40

Hey, human MMP-9 (gelatinase B) (Homo sapiens, UniProt P14780) data for NNC(=C[N+](=O)[O-])Nc1ccc(O)cc1 : pIC50 came out at 4.47

pIC50 on human MMP-9 (gelatinase B) (Homo sapiens, UniProt P14780) for CNC(=C[N+](=O)[O-])NNc1cccc(C(F)(F)F)n1 is 5.15

Form field, pIC50 with human MMP-9 (gelatinase B) (Homo sapiens, UniProt P14780), item CSc1ccc(NC(=C[N+](=O)[O-])NN)cc1 : 4.39

Bench note, human MMP-9 (gelatinase B) (Homo sapiens, UniProt P14780): CNC(=C[N+](=O)[O-])NN=C(C)C , pIC50 reads 4.66

The measured pIC50 that Cc1cc(C)c(S(C)(=O)=O)c(NNC(=C[N+](=O)[O-])NS(C)(=O)=O)n1 showed for human MMP-9 (gelatinase B) (Homo sapiens, UniProt P14780) is 5.20

Value (pIC50, human MMP-9 (gelatinase B) (Homo sapiens, UniProt P14780)) for record CNC(=C[N+](=O)[O-])NNc1cc(C(F)(F)F)cc(Oc2ccccc2)n1 = 4.53

Entry CCNC(=C[N+](=O)[O-])NN under human MMP-9 (gelatinase B) (Homo sapiens, UniProt P14780) had pIC50 of 4.52

Item NNC(=C[N+](=O)[O-])NC1Cc2ccccc2C1 ; assay system human MMP-9 (gelatinase B) (Homo sapiens, UniProt P14780); pIC50 reported as 4.42

Entry CNC(=C[N+](=O)[O-])NNc1ccc(C)cc1 ; assay system human MMP-9 (gelatinase B) (Homo sapiens, UniProt P14780); pIC50 recorded at 4.30

Lab entry: human MMP-9 (gelatinase B) (Homo sapiens, UniProt P14780) assay, compound NNC(=C[N+](=O)[O-])NN1CCOCC1 , pIC50 = 4.24

Sample CNC(=C[N+](=O)[O-])NNc1cc(C(F)(F)F)cc(C)n1 [compound 131] , system: human MMP-9 (gelatinase B) (Homo sapiens, UniProt P14780). Its pIC50 is 5.70

Tested on human MMP-9 (gelatinase B) (Homo sapiens, UniProt P14780): Cc1nn(C)c(C)c1NC(=C[N+](=O)[O-])NN . Observed pIC50: 4.34

Hey, human MMP-9 (gelatinase B) (Homo sapiens, UniProt P14780) data for COCCNC(=C[N+](=O)[O-])NNc1cc(C(F)(F)F)cc(Cl)n1 : pIC50 came out at 5.03

The measured pIC50 that CNC(=C[N+](=O)[O-])NNc1cc(C(F)(F)F)ccn1 showed for human MMP-9 (gelatinase B) (Homo sapiens, UniProt P14780) is 5.38

Bench note, human MMP-9 (gelatinase B) (Homo sapiens, UniProt P14780): entry CNC(=C[N+](=O)[O-])NNc1nc2ccccc2s1 , its pIC50 = 5.92

====

biological target: human MMP-9 (gelatinase B) (Homo sapiens, UniProt P14780); construct: endogenous in cells; host or cells: HT1080 human fibrosarcoma cells (ATCC CCL-121), PMA-stimulated; enzyme purified from the culture supernatant; test: Inhibition activity against human MMP-9 (gelatinase B), fluorescent peptide substrate; format: biochemical; settings: intermediates, compounds of the formula (IV); 1st measurement; read-out: MMP-9 inhibition activities IC50, 1st
measurement label: IC50 (µM)
State the answer as a number, implicitly in µM.

Entry under test: CSC(=C[N+](=O)[O-])NC1CCCC1 [Intermediate 3] . Its IC50 was 21.3

# IC50 of COc1ccc(NC(=C[N+](=O)[O-])SC)cn1 [Intermediate 49] = 29.5

# compound CSC(=C[N+](=O)[O-])Nc1ccc2c(c1)OCO2 [Intermediate 51] ; its IC50 = 31.6

For this compound ( CSC(=C[N+](=O)[O-])Nc1ccc(F)cc1 [Intermediate 21] ), measured IC50 is 31.6

Please fill in: IC50 reported for CCS(=O)(=O)NC(=C[N+](=O)[O-])SC [Intermediate 59] = 11.4

Notebook: CSC(=C[N+](=O)[O-])Nc1ccc2cn[nH]c2c1 [Intermediate 55] , IC50 read as 32.5

Record CSC(=C[N+](=O)[O-])Nc1c(C)nn(C)c1C [Intermediate 54] , field IC50: 38.7

IC50 for COc1ccccc1NC(=C[N+](=O)[O-])SC [Intermediate 25] is 38.9

Notebook: CCOC(=O)c1ccc(NC(=C[N+](=O)[O-])SC)cc1 [Intermediate 50] , IC50 read as 33.9

Lookup result for CSC(=C[N+](=O)[O-])NC1CC1 [Intermediate 2] ; measured IC50: 31.4

====

target: human MMP-9 (gelatinase B) (Homo sapiens); construct: endogenous in cells; host or cells: HT1080 human fibrosarcoma cells (ATCC CCL-121), PMA-stimulated; enzyme purified from the culture supernatant; test: Inhibition activity against human MMP-9 (gelatinase B), fluorescent peptide substrate; assay type: biochemical; settings: compounds of the formula (I); average of 1st and 2nd (or single measurement); read-out: MMP-9 inhibition activities IC50, Average
Mark 1 for IC50 under 20 µM, -1 if at or over.

Consider CCCCOc1cc(C(F)(F)F)cc(NNC(=C[N+](=O)[O-])NC)n1 [compound 177] . Does its IC50 lie strictly below 20 µM?
1

Is it true that IC50 reported for CNC(=C[N+](=O)[O-])NN(C)C is less than 20 µM?
-1

Decide: IC50 of CNC(=C[N+](=O)[O-])NNS(C)(=O)=O strictly below 20 µM?
-1

In the record for CNC(=C[N+](=O)[O-])NNc1ncc(C(F)(F)F)cc1Cl , is IC50 less than 20 µM?
1

Dear reviewer, please state whether CNC(=C[N+](=O)[O-])NNc1cc(C(F)(F)F)nc(C(F)(F)F)c1 has IC50 strictly beneath 20 µM.
-1

Find out if reported IC50 for NNC(=C[N+](=O)[O-])Nc1ccc(Cl)cc1 is less than 20 µM
-1

Lab note: IC50 threshold 20 µM. Does this molecule come in strictly under it? CNC(=C[N+](=O)[O-])NNc1nc(-c2ccccc2)nc2ccccc12
-1

IC50 under 20 µM? Item: NNC(=C[N+](=O)[O-])Nc1ccc(OC(F)(F)F)cc1
-1

I wonder whether CNC(=C[N+](=O)[O-])NNc1ccc(Cl)cn1 has IC50 below 20 µM. Can you tell?
1

Problem: For the molecule CNC(=C[N+](=O)[O-])NNc1cc(C(F)(F)F)cc(OCC2CCCO2)n1 (centres unmarked) , is IC50 under 20 µM?
1

Consider the molecule CNC(=C[N+](=O)[O-])NNc1ncc(C(F)(F)F)cc1[N+](=O)[O-] . Is its IC50 strictly less than 20 µM?
-1

Consider NC(=C[N+](=O)[O-])NNc1cc(C(F)(F)F)cc(Cl)n1 . Does its IC50 lie strictly below 20 µM?
1

Is 20 µM strictly greater than the molecule's reported IC50? molecule: CNC(=C[N+](=O)[O-])NNc1ccc(C(F)(F)F)cc1
-1

Dear colleague, could you confirm whether IC50 of CCNC(=C[N+](=O)[O-])NN falls below 20 µM? Thanks.
-1

Please let me know if CNC(=C[N+](=O)[O-])NN(C)c1ccc(C(F)(F)F)cn1 shows IC50 below 20 µM.
-1

In the record for O=[N+]([O-])C=C(NCCCCO)NNc1cc(C(F)(F)F)cc(Cl)n1 , is IC50 less than 20 µM?
1

Quick check: does COc1ccccc1NC(=C[N+](=O)[O-])NN have IC50 under 20 µM?
-1

Please let me know if NNC(=C[N+](=O)[O-])Nc1ccc2cn[nH]c2c1 shows IC50 below 20 µM.
-1

For CNC(=C[N+](=O)[O-])NNc1cc(C(F)(F)F)cc(OCC2CCCCO2)n1 (centres unmarked) , is the recorded IC50 below the cut-off of 20 µM?
1

# check: IC50 < 20 µM for CNC(=C[N+](=O)[O-])NN=C(C)c1ccccn1
-1
